test system: Candida albicans; test: Antifungal activity against 10^7 CFU/mL Candida albicans PC31 preincubated for 30 mins in dark followed by irradiation measured after 30 mins; format: functional, organism-based; settings: PC31, light or radiation study
Reported IC50 values for the following molecules.

>  <MOLECULAR STRING>
C[N+](C)(C)c1ccc(-c2c3nc(c(-c4ccc([N+](C)(C)C)cc4)c4ccc([nH]4)c(-c4ccc([N+](C)(C)C)cc4)c4nc(c(-c5ccc(C(F)(F)F)cc5)c5ccc2[nH]5)C=C4)C=C3)cc1

>  <TARGET DESC>
Candida albicans

>  <MEASURE UNIT>
nM

>  <IC50>
160

$$$$
>  <MOLECULAR STRING>
C[n+]1ccc(-c2c3nc(c(-c4cc[n+](C)cc4)c4ccc([nH]4)c(-c4cc[n+](C)cc4)c4ccc([nH]4)c(-c4cc[n+](C)cc4)c4nc2C=C4)C=C3)cc1

>  <TARGET DESC>
Candida albicans

>  <MEASURE UNIT>
nM

>  <IC50>
410

$$$$
>  <MOLECULAR STRING>
C[N+](C)(C)c1ccc(-c2c3nc(c(-c4ccc([N+](C)(C)C)cc4)c4ccc([nH]4)c(-c4ccc([N+](C)(C)C)cc4)c4nc(c(-c5ccc([N+](C)(C)C)cc5)c5ccc2[nH]5)C=C4)C=C3)cc1

>  <TARGET DESC>
Candida albicans

>  <MEASURE UNIT>
nM

>  <IC50>
230

$$$$

Where do these numbers come from? They come from ChEMBL document CHEMBL2169771.
